Parameter selectivity ratio: see the listing below.
# Method summary: Selectivity index, ratio of CC50 for human Hep-2 cells to EC50 for antiviral activity against Coxsackievirus B3 infected in human Hep-2 cells
# Format: toxicity, cell-based
# Experimental conditions: read-out: Ratio CC50/EC50
Experimental endpoint: selectivity ratio

{"Chem smiles": "C=C[C@@](C)(O)[C@H]1C[C@H]2C(=C)[C@@H]3C[C@H]4C(C)(C)CCC[C@]24[C@H]1O3", "Experimental endpoint": "selectivity ratio", "Quantitative result": 6.2}
{"Chem smiles": "C=C[C@](C)(O)[C@H]1C[C@H]2C(=C)[C@@H]3C[C@H]4C(C)(C)CCC[C@]24[C@H]1O3", "Experimental endpoint": "selectivity ratio", "Quantitative result": 3.8}
{"Chem smiles": "C=C[C@@](C)(O)[C@@H]1C[C@H]2C(=C)[C@@H]3C[C@H]4C(C)(C)CCC[C@]24[C@H]1O3", "Experimental endpoint": "selectivity ratio", "Quantitative result": 2}
{"Chem smiles": "NC(=O)c1ncn([C@@H]2O[C@H](CO)[C@@H](O)[C@H]2O)n1", "Experimental endpoint": "selectivity ratio", "Quantitative result": 3.4}
